- System: Saccharomyces cerevisiae BY4741 SeMeCo community
- testDetails: z-score of subpopulation abundance vs DMSO median, subpopulation auxotrophic for HM; higher = larger share of this subpopulation than in DMSO controls
- assaySetup: 10 µM; 24 h; SM minimal medium; subpopulation (auxotrophy): HM
Counter-ions that a name gives are not always drawn.
quantityMeasured: z-score of subpopulation abundance

Q: Reported z-score of subpopulation abundance, molecule CCC(C)C1OC2(CCC1C)CC1CC(CC=C(C)C(OC3CC(OC)C(OC4CC(OC)C(O)C(C)O4)C(C)O3)C(C)C=CC=C3COC4C(O)C(C)=CC(C(=O)O1)C34O)O2 (stereo unspecified) : ____
Result: 1.17

Q: Reported z-score of subpopulation abundance, molecule COc1ccc(CC2c3cc(OC)c(OC)cc3CC[N+]2(C)CCC(=O)OCCCCCOC(=O)CC[N+]2(C)CCc3cc(OC)c(OC)cc3C2Cc2ccc(OC)c(OC)c2)cc1OC (stereo unspecified) [Atracurium Besylate] : ____
Result: 0.41

Q: Reported z-score of subpopulation abundance, molecule COc1cc([C@@H]2c3cc4c(cc3[C@@H](O[C@@H]3O[C@@H]5CO[C@@H](c6cccs6)O[C@H]5[C@H](O)[C@H]3O)[C@H]3COC(=O)[C@H]23)OCO4)cc(OC)c1O [Teniposide] : ____
Result: 0.99

Q: Reported z-score of subpopulation abundance, molecule CCCN[C@H]1CCc2nc(N)sc2C1 [Pramipexole] : ____
Result: 0.07

Q: Reported z-score of subpopulation abundance, molecule O=C1CCc2cc(OCCCCc3nnnn3C3CCCCC3)ccc2N1 : ____
Result: -0.41

Q: Reported z-score of subpopulation abundance, molecule N[C@@H](CCC(=O)O)C(=O)O [(S)-Glutamic acid] : ____
Result: -0.08

Q: Reported z-score of subpopulation abundance, molecule CC1(C)S[C@@H]2[C@H](NC(=O)[C@H](N)c3ccccc3)C(=O)N2[C@H]1C(=O)O [Ampicillin Trihydrate] : ____
Result: -0.06

Q: Reported z-score of subpopulation abundance, molecule COc1cc([C@@H]2c3cc4c(cc3[C@@H](O[C@@H]3O[C@@H]5CO[C@@H](C)O[C@H]5[C@H](O)[C@H]3O)[C@H]3COC(=O)[C@H]23)OCO4)cc(OC)c1O [Etoposide] : ____
Result: 0.36

Q: Reported z-score of subpopulation abundance, molecule COc1ccc2[nH]c([S+]([O-])Cc3ncc(C)c(OC)c3C)nc2c1 (stereo unspecified) [Omeprazole] : ____
Result: 0.37

Q: Reported z-score of subpopulation abundance, molecule NC12CC3CC(CC(C3)C1)C2 [Amantadine] : ____
Result: -0.03

Q: Reported z-score of subpopulation abundance, molecule CC[C@H]1OC(=O)[C@H](C)[C@@H](O[C@H]2C[C@@](C)(OC)[C@@H](O)[C@H](C)O2)[C@H](C)[C@@H](O[C@@H]2O[C@H](C)C[C@H](N(C)C)[C@H]2O)[C@](C)(O)C[C@@H](C)C(=O)[C@H](C)[C@@H](O)[C@]1(C)O [Erythromycin thiocyanate] : ____
Result: 0.23

Q: Reported z-score of subpopulation abundance, molecule COCCOC(=O)C1=C(C)NC(C)=C(C(=O)OC(C)C)C1c1cccc([N+](=O)[O-])c1 (stereo unspecified) : ____
Result: -0.32

Q: Reported z-score of subpopulation abundance, molecule C[N+]1(C)[C@@H]2C[C@@H](OC(=O)C(O)(c3cccs3)c3cccs3)C[C@H]1[C@@H]1O[C@@H]12 [Tiotropium Bromide hydrate] : ____
Result: -0.06

Q: Reported z-score of subpopulation abundance, molecule C[n+]1ccccc1/C=N/O [Pralidoxime chloride] : ____
Result: -0.08

Q: Reported z-score of subpopulation abundance, molecule COc1cc(O)c(C(=O)Nc2nc(C(=O)NCCN(C(C)C)C(C)C)cs2)cc1OC [Acotiamide] : ____
Result: 0.64

Q: Reported z-score of subpopulation abundance, molecule CCCCCCCCN=c1ccn(CCCCCCCCCCn2ccc(=NCCCCCCCC)cc2)cc1 [Octenidine Dihydrochloride] : ____
Result: 6.33

Q: Reported z-score of subpopulation abundance, molecule CCOC(=O)CCC(=O)O[C@H]1[C@H](O[C@@H]2[C@@H](C)[C@H](O[C@H]3C[C@@](C)(OC)[C@@H](O)[C@H](C)O3)[C@@H](C)C(=O)O[C@H](CC)[C@@](C)(O)[C@H](O)[C@@H](C)C(=O)[C@H](C)C[C@@]2(C)O)O[C@H](C)C[C@@H]1N(C)C [Erythromycin Ethylsuccinate] : ____
Result: 3.14

Q: Reported z-score of subpopulation abundance, molecule C1CCN2C[C@@H]3C[C@@H](CN4CCCC[C@@H]34)[C@H]2C1 [(-)-Sparteine Sulfate] : ____
Result: 0.08

Q: Reported z-score of subpopulation abundance, molecule O=C1CN(/N=C/c2ccc(-c3ccc([N+](=O)[O-])cc3)o2)C(=O)N1 [Dantrolene sodium hemiheptahydrate] : ____
Result: 1.38

Q: Reported z-score of subpopulation abundance, molecule CC[C@H](C)[C@H](N)C1=N[C@H](C(=O)N[C@@H](CC(C)C)C(=O)N[C@H](CCC(=O)O)C(=O)N[C@H](C(=O)N[C@H]2CCCCNC(=O)[C@H](CC(N)=O)NC(=O)[C@@H](CC(=O)O)NC(=O)[C@H](Cc3cnc[nH]3)NC(=O)[C@@H](Cc3ccccc3)NC(=O)[C@H]([C@@H](C)CC)NC(=O)[C@@H](CCCN)NC2=O)[C@@H](C)CC)CS1 : ____
Result: 1.2

Q: Reported z-score of subpopulation abundance, molecule CCn1cc(C(=O)O)c(=O)c2cc(F)c(N3CCNCC3)nc21 [Enoxacin Sesquihydrate] : ____
Result: 0.03

Q: Reported z-score of subpopulation abundance, molecule O=C(Nc1c(Cl)cncc1Cl)c1ccc(OC(F)F)c(OCC2CC2)c1 : ____
Result: -0.18

Q: Reported z-score of subpopulation abundance, molecule N[C@@H]1CN(c2c(F)cc3c(=O)c(C(=O)O)cn([C@@H]4C[C@@H]4F)c3c2Cl)CC12CC2 [Sitafloxacin Hydrate] : ____
Result: 0.61

Q: Reported z-score of subpopulation abundance, molecule Cc1cc(CC(C)CC(C)(C)C)n(O)c(=O)c1 (stereo unspecified) : ____
Result: 24

Q: Reported z-score of subpopulation abundance, molecule O=C1CC2(CCCC2)CC(=O)N1CCCCN1CCN(c2ncccn2)CC1 [Buspirone HCl] : ____
Result: -0.83

Q: Reported z-score of subpopulation abundance, molecule Oc1cccc(O)c1 : ____
Result: -0.29
